- Assay target: M1 receptor (Homo sapiens)
- Construct: expressed in transfected cells; host or cells: CHO-K1
- Sequence (P11229 whole entry): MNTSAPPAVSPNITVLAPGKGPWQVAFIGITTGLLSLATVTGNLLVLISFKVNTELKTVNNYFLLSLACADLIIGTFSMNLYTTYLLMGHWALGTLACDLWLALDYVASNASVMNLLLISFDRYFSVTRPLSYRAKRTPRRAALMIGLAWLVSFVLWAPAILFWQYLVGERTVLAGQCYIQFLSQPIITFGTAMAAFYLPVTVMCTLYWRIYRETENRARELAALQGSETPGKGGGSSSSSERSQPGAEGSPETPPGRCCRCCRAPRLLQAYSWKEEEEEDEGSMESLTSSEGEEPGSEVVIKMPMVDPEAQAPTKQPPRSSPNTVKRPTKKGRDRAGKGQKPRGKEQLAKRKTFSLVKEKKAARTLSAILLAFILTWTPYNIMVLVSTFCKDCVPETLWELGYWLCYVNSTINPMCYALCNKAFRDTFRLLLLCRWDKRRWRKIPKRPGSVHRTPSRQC
- Experiment description: DMR assay, antagonism of acetylcholine in CHO-K1 cells stably transfecting the M1 receptor
- Format: cell-based
- Conditions used: CHO-K1-M1 cells, DMR, acetylcholine 1 μM, 1 h pretreatment, time point 5 min
pIC50: −log10 of the molar value.
The threshold is inclusive: pIC50 of exactly 7 counts as 1.0; values below receive 0.0.

INPUT: Can CN1CCCCC1CC(c1ccccc1)c1cccs1 (stereo not drawn) be said to have pIC50 at or above 7?
OUTPUT: 0.0

INPUT: Would you say C[N+]1(C)CCCCC1CC(c1ccccc1)c1ccccc1O (stereo not drawn) [I-2a-I] shows pIC50 at minimum 7?
OUTPUT: 1.0

INPUT: Identify whether the reported pIC50 of the following compound is 7 or greater: C[N+]1(C)CCCCC1CC(c1ccccc1)c1ccccc1O (stereo not drawn) [I-2a-2-Br]
OUTPUT: 1.0

INPUT: # bool: pIC50 of Cc1ccc(O)c(C(CC2CCCC[N+]2(C)C)c2ccsc2)c1 (stereo not drawn) >= 7
OUTPUT: 1.0

INPUT: Hi, just wondering whether Cc1ccc(O)c(C(CC2CCCC[N+]2(C)C)c2ccccc2)c1 (stereo not drawn) [I-4a-I] shows pIC50 of 7 or higher.
OUTPUT: 1.0

INPUT: Reported pIC50 at or above 7? Cc1ccc(O)c(C(CC2CCCCN2C)c2ccccc2F)c1 (stereo not drawn)
OUTPUT: 0.0

INPUT: Could you tell me if the measured pIC50 of C[N+]1(C)CCCCC1CC(c1ccccc1O)c1ccccc1O (racemic) [I-3-Br] reaches 7 or more?
OUTPUT: 1.0

INPUT: # check: pIC50 of CN1CCCCC1CC(c1ccccc1O)c1ccccc1O (single isomer, unassigned) [II-3-2] is greater than or equal to 7
OUTPUT: 1.0

INPUT: Tell me whether pIC50 is at least 7 here: COc1ccccc1C(CC1CCCCN1C)c1ccccc1 (stereo not drawn)
OUTPUT: 0.0

INPUT: Does the reported pIC50 for CN1CCCCC1CC(c1ccccc1O)c1ccccc1O (single isomer, unassigned) [II-3-1] fall at or above the 7 mark?
OUTPUT: 1.0

INPUT: Assess whether reported pIC50 for CN1CCCCC1CC(c1ccccc1O)c1ccccc1O (racemic) [II-3] sits at 7 or higher.
OUTPUT: 1.0

INPUT: # bool: pIC50 of C[N+]1(C)CCCCC1CC(c1ccccc1O)c1ccccc1O.[Br-] (stereo not drawn) [I-3-1-Br] >= 7
OUTPUT: 1.0

INPUT: Given CCc1ccc(O)c(C(CC2CCCC[N+]2(C)C)c2ccccc2)c1 (stereo not drawn) [I-5-Br] , state whether its pIC50 is at least 7.
OUTPUT: 1.0

From: patent US11274079B2
